Data origin: the supplement of paper PMC11061612

- Test system: MOLM-13 (Acute Myeloid Leukemia)
- assay.comment: Bliss excess, mean over the matrix (fraction); higher = more synergy;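 also: after 72 h of two-drug dosing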
observable: Bliss excess

Here are 3 compounds together with their reported answers.
COc1nnc2ccc(N3CCC(c4ccc(OCCN5CCN(C)C(=O)[C@H]5C)cc4)CC3)nn12 [AZD5153] + C[C@@H]1COCCN1C2=NC(=NC(=C2)C3(CC3)[S@](=N)(=O)C)C4=C5C=CNC5=NC=C4 [AZD6738] (first compound max 1 µM, 7x7, partner max 10 µM)    -0.0068
CC(=O)c1c(C)c2cnc(Nc3ccc(N4CCNCC4)cn3)nc2n(C2CCCC2)c1=O [Palbociclib] + Cc1c2c(nn1C)CSCc1cc(n(C)n1)CSc1cc(c3ccccc3c1)OCCCc1c(C(=O)O)n(C)c3c-2c(Cl)ccc13 [AZD5991] (first compound max 10 µM, 7x7, partner max 1 µM)    -0.0314
C=CCn1c(=O)c2cnc(Nc3ccc(N4CCN(C)CC4)cc3)nc2n1-c1cccc(C(C)(C)O)n1 [AZD1775] + C[C@@H]1COCCN1C2=NC(=NC(=C2)C3(CC3)[S@](=N)(=O)C)C4=C5C=CNC5=NC=C4 [AZD6738] (first compound max 1 µM, partner max 10 µM)    0.0233

Turning to the following compound.
Q: May I ask what Bliss excess has been recorded for Cc1c2c(nn1C)CSCc1cc(n(C)n1)CSc1cc(c3ccccc3c1)OCCCc1c(C(=O)O)n(C)c3c-2c(Cl)ccc13 [AZD5991] + C[C@@H]1COCCN1C2=NC(=NC(=C2)C3(CC3)[S@](=N)(=O)C)C4=C5C=CNC5=NC=C4 [AZD6738] (first compound max 1 µM, 7x7, partner max 10 µM) ?
Result: 0.0037

---

- Tested on: NCI-H3122 (Lung Adenocarcinoma)
- assay.comment: Bliss excess, mean over the matrix (fraction); higher = more synergy
Reported Bliss excess values follow for various molecules
Hey, just send me the number, nothing else.

// solved cases for Bliss excess follow
NC1(C(=O)N[C@@H](CCO)c2ccc(Cl)cc2)CCN(c2ncnc3[nH]ccc23)CC1 [Capivasertib] + COc1nnc2ccc(N3CCC(c4ccc(OCCN5CCN(C)C(=O)[C@H]5C)cc4)CC3)nn12 [AZD5153] (first compound max 10 µM, 7x7, partner max 1 µM)    -0.0131
COc1cc2ncnc(Nc3ccc(F)c(Cl)c3)c2cc1OCCCN1CCOCC1 [Gefitinib] + CC(C)n1c(=O)n(C)c2cnc3cc(F)c(-c4ccc(OCCCN5CCCCC5)nc4)cc3c21 [AZD1390] (first compound max 10 µM, 7x7, partner max 0.3 µM)    -0.0775
N#Cc1cnc(Nc2cc(NC[C@H]3CNCCO3)c(C(F)(F)F)cn2)cn1 [SRA737] + C=CCn1c(=O)c2cnc(Nc3ccc(N4CCN(C)CC4)cc3)nc2n1-c1cccc(C(C)(C)O)n1 [AZD1775] (first compound max 10 µM, partner max 1 µM)    0.0718
CN(CCO)CC[C@H](CSc1ccccc1)Nc1ccc(S(=O)(=O)NC(=O)c2ccc(N3CCC([C@@H](O)c4ccccc4-c4ccc(Cl)cc4)CC3)cc2)cc1S(=O)(=O)C(F)(F)F [AZD4320] + Cc1cc2ncnn2cc1Nc1ncc2c(n1)n(C1CCOCC1)c(=O)n2C [AZD7648] (first compound max 1 µM, 7x7, partner max 10 µM)    -0.0676

Q: Field request: Bliss excess | item: Cc1cc2ncnn2cc1Nc1ncc2c(n1)n(C1CCOCC1)c(=O)n2C [AZD7648] + CCN(CCO)CCCOc1ccc2c(Nc3cc(CC(=O)Nc4cccc(F)c4)[nH]n3)ncnc2c1 [AZD2811] (first compound max 10 µM, 7x7, partner max 1 µM)
Result: 0.0558
